Test Description: qHTS Assay for Lipid Storage Modulators in Drosophila S3 Cells
Measurement Conditions: BODIPY lipid droplet fluorescence, 18-24 h, cells fed with added oleic acid; series mostly up to 46.1 µM
Screen size: about 320,000 compounds; about 2,100 (0.66%) were called active. Roughly 53% stayed inconclusive and do not appear here. Calls come from the whole dose curve; as a rule, active = well fitted inhibition curve with a large enough effect in the signal ratio, with a control signal flat (not every such curve was filed as active); inconclusive = small, poorly fitted or top-dose-only effect, or effect the other way, or a change in a side signal; inactive = flat fitted curve, though single readings scatter; the % refers to the signal ratio. Only a selection was taken, and actives are over-represented in it overall.
Bench note: report the call from active, inactive

Exam item: Please indicate how the test categorized O=C(O)c1ccc(COc2ccc(Cl)cc2)o1 .
Marked response: active

Exam item: Fill in: this test's call for CCOC(=O)C1=C(C)OC(N)=C(C#N)C1c1cccc(C)c1 (stereo not drawn) is ___
Marked response: inactive

Next:
Exam item: State the result this test recorded for CCCN1CCC(NC(=S)Nc2ccc(S(N)(=O)=O)cc2)CC1 .
Marked response: inactive
